experiment: MTT cytotoxicity assay on Vero cells; format: cell-based; settings: MTT, calculated after 2 h of peptide treatment
Where a SMILES comes first, the peptide text is derived from it. [ ]: non-standard residue; d: D form. Aic = NC1(C(=O)O)Cc2ccccc2C1
Would you kindly list CC50 for each of these molecules?
Just the number in µM, nothing appended.

Incoming: For the molecule shown here, CC[C@H](C)[C@H](NC(=O)[C@H](CCCNC(=N)N)NC(=O)C1(NC(=O)[C@@H](CC(C)C)NC(=O)[C@H](Cc2ccccc2)NC(=O)[C@H](CCCCN)NC(=O)[C@H](CO)NC(=O)[C@H](Cc2ccccc2)NC(=O)[C@H](Cc2c[nH]c3ccccc23)NC(=O)[C@@H]2CCCN2C(=O)[C@@H](NC(=O)[C@@H](N)Cc2ccccc2)C(C)C)Cc2ccccc2C1)C(=O)N[C@@H](CC(C)C)C(N)=O [TL12] (H-FVPWFSKF[dL][Aic]RIL-NH2) , give the reported CC50.
Outgoing: 8.28

Incoming: For the molecule shown here, CC[C@H](C)[C@H](NC(=O)[C@H](CCCNC(=N)N)NC(=O)[C@H](Cc1c[nH]c2ccccc12)NC(=O)[C@@H](CC(C)C)NC(=O)[C@H](Cc1ccccc1)NC(=O)[C@H](CCCCN)NC(=O)[C@H](CO)NC(=O)[C@H](Cc1ccccc1)NC(=O)[C@H](Cc1c[nH]c2ccccc12)NC(=O)[C@@H]1CCCN1C(=O)[C@@H](NC(=O)[C@@H](N)Cc1ccccc1)C(C)C)C(=O)N[C@@H](CC(C)C)C(N)=O [TL10] (H-FVPWFSKF[dL]WRIL-NH2) , give the reported CC50.
Outgoing: 35.5

----------
assay: MTT cytotoxicity assay on Vero cells; type: cell-based; details: MTT, calculated after 2 h of peptide treatment
Attribute Measured: CC50 (µM)
Just the number in µM, nothing appended.

Incoming: For the substance shown here, H-FVQWFSKFLGRIL-NH2 [TL, reference compound] , give the reported CC50.
Outgoing: 19.6

----------
assay: MTT cytotoxicity assay on Vero cells; format: cell-based; details: MTT, calculated after 2 h of peptide treatment
Where a SMILES comes first, the peptide text is derived from it. [ ]: non-standard residue; d: D form. Nle = CCCC[C@H](N)C(=O)O
Attribute Measured: CC50 (µM)
Just the number in µM, nothing appended.

Incoming: For the compound shown here, CC[C@H](C)[C@H](NC(=O)[C@H](CCCNC(=N)N)NC(=O)[C@@H](Cc1c[nH]c2ccccc12)NC(=O)[C@@H](CC(C)C)NC(=O)[C@H](Cc1ccccc1)NC(=O)[C@H](CCCCN)NC(=O)[C@H](CO)NC(=O)[C@H](Cc1ccccc1)NC(=O)[C@H](Cc1c[nH]c2ccccc12)NC(=O)[C@@H]1CCCN1C(=O)[C@@H](NC(=O)[C@@H](N)Cc1ccccc1)C(C)C)C(=O)N[C@@H](CC(C)C)C(N)=O [TL11] (H-FVPWFSKF[dL][dW]RIL-NH2) , give the reported CC50.
Outgoing: 24.1

Incoming: For the compound shown here, CCCC[C@H](NC(=O)[C@@H](CC(C)C)NC(=O)[C@H](Cc1ccccc1)NC(=O)[C@H](CCCCN)NC(=O)[C@H](CO)NC(=O)[C@H](Cc1ccccc1)NC(=O)[C@H](Cc1c[nH]c2ccccc12)NC(=O)[C@@H]1CCCN1C(=O)[C@@H](NC(=O)[C@@H](N)Cc1ccccc1)C(C)C)C(=O)N[C@@H](CCCNC(=N)N)C(=O)N[C@H](C(=O)N[C@@H](CC(C)C)C(N)=O)[C@@H](C)CC [TL6] (H-FVPWFSKF[dL][Nle]RIL-NH2) , give the reported CC50.
Outgoing: 64.5

----------
Would you kindly list log10(IC50) for each of these molecules?
test system: influenza virus (subtype H1N1); settings: influenza virus (subtype, 2 h)
Where a SMILES comes first, the peptide text is derived from it. [ ]: non-standard residue; d: D form. The star is where a group is joined. Pentadecanoyl = CCCCCCCCCCCCCCC(=O)*; Palmitoyl = CCCCCCCCCCCCCCCC(=O)*; Aic = NC1(C(=O)O)Cc2ccccc2C1; Nle = CCCC[C@H](N)C(=O)O
# log10 transformed; quantity=IC50; unit=µM

Incoming: For the molecule shown here, CC[C@H](C)[C@H](NC(=O)[C@H](CCCNC(=N)N)NC(=O)[C@H](Cc1c[nH]c2ccccc12)NC(=O)[C@@H](CC(C)C)NC(=O)[C@H](Cc1ccccc1)NC(=O)[C@H](CCCCN)NC(=O)[C@H](CO)NC(=O)[C@H](Cc1ccccc1)NC(=O)[C@H](Cc1c[nH]c2ccccc12)NC(=O)[C@@H]1CCCN1C(=O)[C@@H](NC(=O)[C@@H](N)Cc1ccccc1)C(C)C)C(=O)N[C@@H](CC(C)C)C(N)=O [TL10] (H-FVPWFSKF[dL]WRIL-NH2) , give the reported log10(IC50).
Outgoing: 0.58

Incoming: For the molecule shown here, CC[C@H](C)[C@H](NC(=O)[C@H](CCCNC(=N)N)NC(=O)[C@@H](CCCCN)NC(=O)[C@@H](CC(C)C)NC(=O)[C@H](Cc1ccccc1)NC(=O)[C@H](CCCCN)NC(=O)[C@H](CO)NC(=O)[C@H](Cc1ccccc1)NC(=O)[C@H](Cc1c[nH]c2ccccc12)NC(=O)[C@@H]1CCCN1C(=O)[C@@H](NC(=O)[C@@H](N)Cc1ccccc1)C(C)C)C(=O)N[C@@H](CC(C)C)C(N)=O [TL9] (H-FVPWFSKF[dL][dK]RIL-NH2) , give the reported log10(IC50).
Outgoing: 0.54

Incoming: For the molecule shown here, CC[C@H](C)[C@H](NC(=O)[C@H](CCCNC(=N)N)NC(=O)[C@H](CCCCN)NC(=O)[C@@H](CC(C)C)NC(=O)[C@H](Cc1ccccc1)NC(=O)[C@H](CCCCN)NC(=O)[C@H](CO)NC(=O)[C@H](Cc1ccccc1)NC(=O)[C@H](Cc1c[nH]c2ccccc12)NC(=O)[C@@H]1CCCN1C(=O)[C@@H](NC(=O)[C@@H](N)Cc1ccccc1)C(C)C)C(=O)N[C@@H](CC(C)C)C(N)=O [TL8] (H-FVPWFSKF[dL]KRIL-NH2) , give the reported log10(IC50).
Outgoing: 0.53

Incoming: For the molecule shown here, CC[C@H](C)[C@H](NC(=O)[C@H](CCCNC(=N)N)NC(=O)[C@@H]1CCCN1C(=O)[C@@H](CC(C)C)NC(=O)[C@H](Cc1ccccc1)NC(=O)[C@H](CCCCN)NC(=O)[C@H](CO)NC(=O)[C@H](Cc1ccccc1)NC(=O)[C@H](Cc1c[nH]c2ccccc12)NC(=O)[C@@H]1CCCN1C(=O)[C@@H](NC(=O)[C@@H](N)Cc1ccccc1)C(C)C)C(=O)N[C@@H](CC(C)C)C(N)=O [TL2] (H-FVPWFSKF[dL]PRIL-NH2) , give the reported log10(IC50).
Outgoing: 1.08

Incoming: For the molecule shown here, CC[C@H](C)[C@H](NC(=O)[C@H](CCCNC(=N)N)NC(=O)C1(NC(=O)[C@@H](CC(C)C)NC(=O)[C@H](Cc2ccccc2)NC(=O)[C@H](CCCCN)NC(=O)[C@H](CO)NC(=O)[C@H](Cc2ccccc2)NC(=O)[C@H](Cc2c[nH]c3ccccc23)NC(=O)[C@@H]2CCCN2C(=O)[C@@H](NC(=O)[C@@H](N)Cc2ccccc2)C(C)C)Cc2ccccc2C1)C(=O)N[C@@H](CC(C)C)C(N)=O [TL12] (H-FVPWFSKF[dL][Aic]RIL-NH2) , give the reported log10(IC50).
Outgoing: -0.15

Incoming: For the molecule shown here, CCCCCCCCCCCCCCCC(=O)N[C@@H](Cc1ccccc1)C(=O)N[C@H](C(=O)N1CCC[C@H]1C(=O)N[C@@H](Cc1c[nH]c2ccccc12)C(=O)N[C@@H](Cc1ccccc1)C(=O)N[C@@H](CO)C(=O)N[C@@H](CCCCN)C(=O)N[C@@H](Cc1ccccc1)C(=O)N[C@H](CC(C)C)C(=O)N[C@@H](CCCC)C(=O)N[C@@H](CCCNC(=N)N)C(=O)N[C@H](C(=O)N[C@@H](CC(C)C)C(N)=O)[C@@H](C)CC)C(C)C [TL6.8] (Palmitoyl-FVPWFSKF[dL][Nle]RIL-NH2) , give the reported log10(IC50).
Outgoing: 0.68

Incoming: For the molecule shown here, CCCCCCCCCCCCCCC(=O)N[C@@H](Cc1ccccc1)C(=O)N[C@H](C(=O)N1CCC[C@H]1C(=O)N[C@@H](Cc1c[nH]c2ccccc12)C(=O)N[C@@H](Cc1ccccc1)C(=O)N[C@@H](CO)C(=O)N[C@@H](CCCCN)C(=O)N[C@@H](Cc1ccccc1)C(=O)N[C@H](CC(C)C)C(=O)N[C@@H](CCCC)C(=O)N[C@@H](CCCNC(=N)N)C(=O)N[C@H](C(=O)N[C@@H](CC(C)C)C(N)=O)[C@@H](C)CC)C(C)C [TL6.7] (Pentadecanoyl-FVPWFSKF[dL][Nle]RIL-NH2) , give the reported log10(IC50).
Outgoing: 0.54

Incoming: For the molecule shown here, CC[C@H](C)[C@H](NC(=O)[C@H](CCCNC(=N)N)NC(=O)CNC(=O)[C@@H](CC(C)C)NC(=O)[C@H](Cc1ccccc1)NC(=O)[C@H](CCCCN)NC(=O)[C@H](CO)NC(=O)[C@H](Cc1ccccc1)NC(=O)[C@H](Cc1c[nH]c2ccccc12)NC(=O)[C@@H]1CCCN1C(=O)[C@@H](NC(=O)[C@@H](N)Cc1ccccc1)C(C)C)C(=O)N[C@@H](CC(C)C)C(N)=O [TL1] (H-FVPWFSKF[dL]GRIL-NH2) , give the reported log10(IC50).
Outgoing: 0.83
